B1: LINE1-full (parent)
chain: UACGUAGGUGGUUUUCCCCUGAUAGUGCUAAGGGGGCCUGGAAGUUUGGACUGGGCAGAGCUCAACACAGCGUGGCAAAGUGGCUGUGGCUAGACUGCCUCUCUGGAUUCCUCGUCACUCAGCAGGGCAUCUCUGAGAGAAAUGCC

variants of: B1; test: self-cleavage, relative activity (ratio to wild type); higher = more cleavage; in vitro, sequencing; the parent is a self-cleaving ribozyme
// thresholds for self-cleavage classes: low bin (below 0.3), mid bin (0.3 to below 1), high bin (1 or more)

Study these solved cases before continuing.
1) U96C U134G | low bin
2) G27A U102C | mid bin
3) U5A U112C | mid bin
4) A24U G49A | high bin
5) A42G A79G | high bin

Query: Classify this variant: G82A A138G
Result: high bin

Query: Classify this variant: A30G G74A
Result: mid bin

Query: Classify this variant: A65U A124G
Result: low bin

Query: Classify this variant: G88A G135A
Result: low bin

Query: Classify this variant: U112C A141G
Result: high bin

Query: Classify this variant: U62A U134G
Result: low bin
